Tested on: CD34+ stem cell
Test: microRNA nucleofection into mature blood cells: CD34+ clonogenicity (CFU-GM)
Type: cell-based, human
Conditions: Table 8 Experiment #1; total 60 nM into mature blood cells; siRNA vehicle = 20, No Treatment = 10
Quantity name: CD34+ Differentiation (# CFU-GM)

Consider the reported CD34+ Differentiation (# CFU-GM) for these substances:
miR-1303: isolated microRNA miR-1303 (SEQ ID NO:7) (UUUAGAGACGGGGUCUUGCUCU; listed as RNA, chemistry not given here; listed as Homo sapiens); 32 # CFU-GM
miR-4497: isolated microRNA miR-4497 (SEQ ID NO:6) (CUCCGGGACGGCUGGGC; listed as RNA, chemistry not given here; listed as Homo sapiens); 20 # CFU-GM

Input miR-7851-3p: isolated microRNA miR-7851-3p (SEQ ID NO:10) (UACCUGGGAGACUGAGGUUGGA; listed as RNA, chemistry not given here; listed as Homo sapiens) . Output CD34+ Differentiation (# CFU-GM): 14 # CFU-GM

====

Tested on: CD34+ stem cell
Experiment: microRNA nucleofection into mature blood cells: CD34+ clonogenicity (CFU-GM)
Format: cell-based, human
Settings: Table 8 Experiment #1; total 60 nM into mature blood cells; siRNA vehicle = 20, No Treatment = 10
Description: Candidate microRNAs involved in facilitating adoptive cellular restoration therapy were miR-146a, miR-103a, miR-106a and miR-19a. Combinations of candidate microRNAs were nucleofected at a total concentration of 60 nM into mature blood cells using the CD34+ cell human nucleofector kit (Lonza) and the human CD34+ cell protocol, and effect on CD34+ stem cell vitality and clonogenicity were evaluated compared to siRNA vehicle control. […]
# reported CD34+ Differentiation (# CFU-GM); entries follow

miR-619-5p: isolated microRNA miR-619-5p (SEQ ID NO:8) (GCUGGGAUUACAGGCAUGAGCC; listed as RNA, chemistry not given here; listed as Homo sapiens); 46 # CFU-GM
miR-223: isolated microRNA miR-223-5p (SEQ ID NO:5) (CGUGUAUUUGACAAGCUGAGUU; listed as RNA, chemistry not given here; listed as Homo sapiens); 10 # CFU-GM

// next entry
miR-1273f: isolated microRNA miR-1273f (SEQ ID NO:9) (GGAGAUGGAGGUUGCAGUG; listed as RNA, chemistry not given here; listed as Homo sapiens) has a reported CD34+ Differentiation (# CFU-GM) of 9 # CFU-GM
